Test system: Candida albicans ATCC10231
Format: cell-based
Settings: value in bracket; 48 h at 25° C.
PARAMETER: Minimal bactericidal concentration (MBC) C. albicans ATCC10231

chem_smiles=CC(=O)N[C@@H](CCCCN)c1nc(C)sc1C(=O)N[C@@H](CC(C)C)c1nc(CCCCN)sc1C(=O)N[C@@H](C)c1nc(CC(C)C)sc1C(=O)N[C@@H](CCCCN)c1nc(C)sc1C(=O)N[C@@H](CC(C)C)c1nc(CCCCN)sc1C(=O)N[C@@H](C)c1nc(CC(C)C)sc1C(=O)N[C@@H](CCCCN)c1nc(C)sc1C(=O)N[C@@H](CC(C)C)c1nc(CCCCN)sc1C(=O)N[C@@H](C)c1nc(CC(C)C)sc1C(N)=O test_system="Candida albicans ATCC10231" result="(6.2) μM"
chem_smiles=CC(=O)N[C@@H](CCCNC(=N)N)c1nc(C)sc1C(=O)N[C@@H](C)c1nc(CCCNC(=N)N)sc1C(=O)N[C@@H](C)c1nc(C)sc1C(=O)N[C@@H](CCCNC(=N)N)c1nc(C)sc1C(=O)N[C@@H](C)c1nc(CCCNC(=N)N)sc1C(=O)N[C@@H](C)c1nc(C)sc1C(=O)N[C@@H](CCCNC(=N)N)c1nc(C)sc1C(=O)N[C@@H](C)c1nc(CCCNC(=N)N)sc1C(=O)N[C@@H](C)c1nc(C)sc1C(=O)N[C@@H](CCCNC(=N)N)c1nc(C)sc1C(=O)N[C@@H](C)c1nc(CCCNC(=N)N)sc1C(=O)N[C@@H](C)c1nc(C)sc1C(N)=O test_system="Candida albicans ATCC10231" result="(6.2) μM"

---

System: Candida albicans ATCC10231
Assay type: cell-based
Settings: ATCC10231, 48 h
PARAMETER: Minimal inhibitory concentration (MIC) C. albicans ATCC10231 (µM)

chem_smiles=CC(=O)N[C@@H](CCCCN)c1nc(C)sc1C(=O)N[C@@H](C)c1nc(CCCCN)sc1C(=O)N[C@@H](C)c1nc(C)sc1C(N)=O relation_operator=> result=150
chem_smiles=CC(=O)N[C@@H](CCCCN)c1nc(C)sc1C(=O)N[C@@H](C)c1nc(CCCCN)sc1C(=O)N[C@@H](C)c1nc(C)sc1C(=O)N[C@@H](CCCCN)c1nc(C)sc1C(=O)N[C@@H](C)c1nc(CCCCN)sc1C(=O)N[C@@H](C)c1nc(C)sc1C(N)=O relation_operator== result=62.5
chem_smiles=CC(=O)N[C@@H](CCCCN)c1nc(C)sc1C(=O)N[C@@H](CC(C)C)c1nc(CCCCN)sc1C(=O)N[C@@H](C)c1nc(CC(C)C)sc1C(=O)N[C@@H](CCCCN)c1nc(C)sc1C(=O)N[C@@H](CC(C)C)c1nc(CCCCN)sc1C(=O)N[C@@H](C)c1nc(CC(C)C)sc1C(=O)N[C@@H](CCCCN)c1nc(C)sc1C(=O)N[C@@H](CC(C)C)c1nc(CCCCN)sc1C(=O)N[C@@H](C)c1nc(CC(C)C)sc1C(N)=O relation_operator== result=6.2
chem_smiles=CC(=O)N[C@@H](CCCCN)c1nc(C)sc1C(=O)N[C@@H](C)c1nc(CCCCN)sc1C(=O)N[C@@H](C)c1nc(C)sc1C(=O)N[C@@H](CCCCN)c1nc(C)sc1C(=O)N[C@@H](C)c1nc(CCCCN)sc1C(=O)N[C@@H](C)c1nc(C)sc1C(=O)N[C@@H](CCCCN)c1nc(C)sc1C(=O)N[C@@H](C)c1nc(CCCCN)sc1C(=O)N[C@@H](C)c1nc(C)sc1C(N)=O relation_operator== result=10.4
